- assaySystem: T1, human neonatal Fc receptor (hFcRn) (human, UniProt P55899 24-290; P61769 21-119)
- T1 construct: Biotinylated in the ELISA, Octet and yeast assays; also called human FcRn; huFcRn
- T1 sequence (P55899 24-290 limits assumed, chain 1 of 2): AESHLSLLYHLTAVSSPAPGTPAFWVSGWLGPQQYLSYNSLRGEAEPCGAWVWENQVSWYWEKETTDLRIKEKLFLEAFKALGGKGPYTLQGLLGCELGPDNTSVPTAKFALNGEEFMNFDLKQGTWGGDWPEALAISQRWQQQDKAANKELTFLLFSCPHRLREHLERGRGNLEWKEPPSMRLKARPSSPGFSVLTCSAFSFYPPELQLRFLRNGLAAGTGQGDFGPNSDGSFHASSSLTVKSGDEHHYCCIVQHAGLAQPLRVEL
- T1 sequence (P61769 21-119 limits assumed, chain 2 of 2): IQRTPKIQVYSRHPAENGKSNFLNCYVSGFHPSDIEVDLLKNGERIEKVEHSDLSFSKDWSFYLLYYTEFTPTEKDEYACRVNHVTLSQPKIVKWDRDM
- experimentalProtocol: phage ELISA pH 7.4;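 also: higher score means stronger binding and above about 3 to 5 exceeds background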
measurementType: ELISA score
Give bare numbers.

Some entries whose results are on file:
L6B isolate with insertion SEQ ID NO: 457 (other) EPKSCDKTHTCPPCPAPELLGGPSVFLFPPKPKDTLMISRTPEVTCVVVDVSHEDPEVKFNWYVDGVEVHNAKTKPREEQYNSTYRVVSVLTVLHQDWLNGKEYKCKVSNKALPAPIEKTISKAKGQPREPQVYTLPPSRDELGGCNQSSSREACGGTKNQVSLTCLVKGFYPSDIAVEWESNGQPENNYKTTPPVLDSDGSFFLYSKLTVDKSRWQQGNVFSCSVMHEALHNHYTQKSLSLSPGK | 0.4
L5 isolate with insertion SEQ ID NO: 411 (other) EPKSCDKTHTCPPCPAPELLGGPSVFLFPPKPKDTLMISRTPEVTCVVVDVSHEDPEVKFNWYVDGVEVHNAKTKPREEQYNSTYRVVSVLTVLHQDWLNGKEYKCKVSNKALPAPIEKTISKAKGQPREPQVYTLPPSRDELTKNQVSLTCLVKGFYPSDIAVEWESNGGCNMLWGSCGGGQPENNYKTTPPVLDSDGSFFLYSKLTVDKSRWQQGNVFSCSVMHEALHNHYTQKSLSLSPGK | 0.6

Now let's try a different one.
Fill in reported ELISA score for this entry: L5 isolate with insertion SEQ ID NO: 495 (other) EPKSCDKTHTCPPCPAPELLGGPSVFLFPPKPKDTLMISRTPEVTCVVVDVSHEDPEVKFNWYVDGVEVHNAKTKPREEQYNSTYRVVSVLTVLHQDWLNGKEYKCKVSNKALPAPIEKTISKAKGQPREPQVYTLPPSRDELTKNQVSLTCLVKGFYPSDIAVEWESNGGCLMSQDLCGGGQPENNYKTTPPVLDSDGSFFLYSKLTVDKSRWQQGNVFSCSVMHEALHNHYTQKSLSLSPGK
1
